Values compiled from PubChem BioAssay (Tox21).

- method-notes: qHTS assay to identify small molecule agonists of the estrogen receptor beta (ER-beta) signaling pathway - cell viability counter screen (AID 1259380); note: nearly all actives have a fitted effect of over 30% in size
- cond: ER-beta-bla HEK293T viability, CellTiter-Glo luminescence, 16 h; series mostly up to 92.4 µM
Records with an inconclusive call do not appear. Active and inactive are the calls of the source. Calls come from the whole dose curve; as a rule, active = well fitted cell-killing curve with a large enough effect in the repeat runs; inconclusive = weak or mixed curves, or effect the other way; inactive = flat fitted curve, though single readings scatter.
Outcome codes: class 1 for active, class 0 for inactive

{"compound": "COc1ccc(OC)c(N=Nc2c(O)ccc3ccccc23)c1", "group": "class 1"}
{"compound": "CCC(C)(C)c1ccc(CC(C)CN2C[C@@H](C)O[C@@H](C)C2)cc1 (stereo partly drawn)", "group": "class 1"}
{"compound": "CCc1cccc(C)c1N(C(=O)C(=O)O)C(C)COC (stereo not drawn)", "group": "class 0"}
{"compound": "Cc1ccc(C=O)cc1", "group": "class 0"}
{"compound": "CSc1nnc(C(C)(C)C)c(=O)[nH]1", "group": "class 0"}
{"compound": "CC(C)C(=O)C(C)C", "group": "class 0"}
{"compound": "C=C1CC[C@H]2O[C@]2(C)CC[C@@H]2[C@@H]1CC2(C)C", "group": "class 0"}
{"compound": "C[C@H]1O[C@@H](O[C@H]2CC[C@@]3(C)[C@H](CC[C@@H]4[C@@H]3C[C@@H](O)[C@]3(C)[C@@H](C5=CC(=O)OC5)CC[C@]43O)C2)C[C@H](O)[C@@H]1O[C@H]1C[C@H](O)[C@H](O[C@H]2C[C@H](O)[C@H](O[C@@H]3O[C@H](CO)[C@@H](O)[C@H](O)[C@H]3O)[C@@H](C)O2)[C@@H](C)O1", "group": "class 1"}
{"compound": "O=C1OC(O)C(C(Cl)Cl)=C1Cl (stereo not drawn)", "group": "class 1"}
{"compound": "Oc1ccc(C2(c3ccc(O)c(C4CCCCC4)c3)CCCCC2)cc1C1CCCCC1", "group": "class 1"}
{"compound": "CC1=C(/C=C/C(C)=C/C=C/C(C)=C\\C(=O)O)C(C)(C)CCC1", "group": "class 1"}
{"compound": "Clc1nc(C(Cl)(Cl)Cl)c(Cl)c(Cl)c1Cl", "group": "class 1"}
{"compound": "[Cl][Eu]([Cl])[Cl]", "group": "class 0"}
{"compound": "SC1CCCCC1", "group": "class 0"}
{"compound": "O=C1OC2(c3ccccc31)c1ccc(O)c(Br)c1Oc1c2ccc(O)c1Br", "group": "class 0"}
{"compound": "[Cl][Sc]([Cl])[Cl]", "group": "class 0"}
{"compound": "CC(=O)CC(N)=O", "group": "class 0"}
{"compound": "Nc1ccc2c(S(=O)(=O)O)cccc2c1S(=O)(=O)O", "group": "class 0"}
{"compound": "CN1CCN(CCCN2c3ccccc3Sc3ccc(C(F)(F)F)cc32)CC1", "group": "class 1"}
{"compound": "O=C(Cl)c1ccc(Cl)cc1Cl", "group": "class 0"}
{"compound": "O=C1OC(=O)c2cc(-c3ccc4c(c3)C(=O)OC4=O)ccc21", "group": "class 0"}
{"compound": "CN1CC[C@H](c2c(O)cc(O)c3c(=O)cc(-c4ccccc4Cl)oc23)[C@H](O)C1", "group": "class 0"}
{"compound": "c1ccc2cc3c4ccccc4c4ccccc4c3cc2c1", "group": "class 0"}
